Let's look at some binders and their measured Fold change to WT CD80.
target: T1, human PD-L1 (human, UniProt Q9NZQ7 19-290); assay: flow cytometry on CHO cells stably expressing PD-L1; vs CD80 WT IgV-Fc
T1 construct: also called huPD-L1; CD274
T1 sequence (Q9NZQ7 19-290): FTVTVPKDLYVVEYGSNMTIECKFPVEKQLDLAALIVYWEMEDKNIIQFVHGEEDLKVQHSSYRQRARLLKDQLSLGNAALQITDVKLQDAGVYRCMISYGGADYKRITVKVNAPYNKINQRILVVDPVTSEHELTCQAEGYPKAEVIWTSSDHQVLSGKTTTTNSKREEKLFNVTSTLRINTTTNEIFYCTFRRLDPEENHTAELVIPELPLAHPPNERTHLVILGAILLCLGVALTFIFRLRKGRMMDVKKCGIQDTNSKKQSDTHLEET
Reply numerically in fold, unit not repeated.

Before answering, review these 2 worked examples.
CD80 E35D/M47V/N48K/V68M/K89N IgV-Fc, EAAAK linker (Fc fusion, not shown: a dimerising Fc or GST) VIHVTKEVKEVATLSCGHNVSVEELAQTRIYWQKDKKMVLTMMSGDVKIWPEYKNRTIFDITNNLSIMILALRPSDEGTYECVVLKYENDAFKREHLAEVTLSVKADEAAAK : 491
CD80 E35D/D46V/M47L/V68M/L85Q/E88D IgV-Fc, delta linker (Fc fusion, Fused directly to the Fc with no additional linker; also called E35D/D46V/M47L/V68M/L85Q/E88D delta) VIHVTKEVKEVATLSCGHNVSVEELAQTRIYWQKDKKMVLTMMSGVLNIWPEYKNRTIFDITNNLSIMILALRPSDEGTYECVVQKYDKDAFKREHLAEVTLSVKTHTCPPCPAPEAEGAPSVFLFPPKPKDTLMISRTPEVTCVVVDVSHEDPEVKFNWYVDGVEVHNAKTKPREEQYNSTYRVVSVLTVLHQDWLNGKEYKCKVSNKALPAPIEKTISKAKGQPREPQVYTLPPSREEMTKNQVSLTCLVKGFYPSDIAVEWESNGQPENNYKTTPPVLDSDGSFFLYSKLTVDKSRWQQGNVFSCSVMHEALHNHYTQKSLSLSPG : 484

q: Reported Fold change to WT CD80 for CD80 E35D/M47V/N48K/V68M/K89N IgV-Fc, delta linker (Fc fusion, Fused directly to the Fc with no additional linker; also called E35D/M47V/N48K/V68M/K89N delta) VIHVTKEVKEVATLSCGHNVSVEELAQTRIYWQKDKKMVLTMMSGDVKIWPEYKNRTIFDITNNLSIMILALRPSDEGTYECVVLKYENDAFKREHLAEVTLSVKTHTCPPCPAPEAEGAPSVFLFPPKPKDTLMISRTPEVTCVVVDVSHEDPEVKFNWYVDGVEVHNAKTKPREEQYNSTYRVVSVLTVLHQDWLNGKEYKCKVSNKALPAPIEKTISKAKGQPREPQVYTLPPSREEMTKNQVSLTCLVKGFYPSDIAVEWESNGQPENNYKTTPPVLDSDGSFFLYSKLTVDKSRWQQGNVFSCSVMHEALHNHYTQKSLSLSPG : what is it?
a: 439
